# TEST_SYSTEM: Adenosine receptor A3 (Homo sapiens)
# Sequence (P0DMS8 whole entry): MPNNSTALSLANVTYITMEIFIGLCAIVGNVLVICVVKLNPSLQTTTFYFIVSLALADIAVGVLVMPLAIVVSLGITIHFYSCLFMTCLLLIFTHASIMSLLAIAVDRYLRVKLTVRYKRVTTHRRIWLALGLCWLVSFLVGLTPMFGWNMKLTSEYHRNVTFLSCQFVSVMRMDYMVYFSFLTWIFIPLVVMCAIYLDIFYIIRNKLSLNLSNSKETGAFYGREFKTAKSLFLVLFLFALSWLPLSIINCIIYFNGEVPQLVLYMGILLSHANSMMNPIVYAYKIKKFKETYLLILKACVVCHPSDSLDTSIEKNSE
REPORTED_PROPERTY: pKi
On this scale, pKi is minus log10 of a concentration expressed in M (mol/L).

Use the examples below as a reference point.
{"columns": ["COMPOUND_STRUCTURE", "REPORTED_PROPERTY", "VAL"],
 "data": [
  ["CNC(=O)[C@@]12C[C@@H]1[C@@H](n1cnc3c(NCc4cccc(I)c4)ncnc31)[C@H](O)[C@@H]2O", "pKi", 8.62],
  ["CNC(=O)[C@@]12C[C@@H]1[C@@H](n1cnc3c(NC)nc(Cl)nc31)[C@H](O)[C@@H]2O", "pKi", 8.21]
]}

Q: Could you tell me which pKi is on file for `CNc1nc(Cl)nc2c1ncn2[C@H]1[C@H](O)[C@H](O)[C@]2(CO)C[C@H]12` ?
A: 7.65

* * *

# TEST_SYSTEM: Adenosine receptor A2a (Rattus norvegicus, UniProt P30543)
# Sequence (P30543 whole entry): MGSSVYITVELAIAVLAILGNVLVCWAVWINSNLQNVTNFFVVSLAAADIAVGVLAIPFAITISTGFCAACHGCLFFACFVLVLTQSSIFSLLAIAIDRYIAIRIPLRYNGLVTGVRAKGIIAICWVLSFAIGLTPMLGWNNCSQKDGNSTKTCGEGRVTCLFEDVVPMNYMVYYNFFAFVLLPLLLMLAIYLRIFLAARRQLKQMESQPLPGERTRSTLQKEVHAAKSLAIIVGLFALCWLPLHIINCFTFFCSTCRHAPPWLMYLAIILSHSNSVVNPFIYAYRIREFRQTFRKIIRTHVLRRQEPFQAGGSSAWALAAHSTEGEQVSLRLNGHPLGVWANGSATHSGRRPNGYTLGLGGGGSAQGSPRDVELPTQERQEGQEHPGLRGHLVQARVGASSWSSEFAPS
# METHOD: Displacement of [3H]-CGS- 21680 from Adenosine A2A receptor in rat brain membrane
# Type: cell membranes
REPORTED_PROPERTY: Ki
The reply should read as a number followed by its unit.

Q: Fill in: Ki of `CCNC(=O)[C@@]12C[C@@H]1[C@@H](n1cnc3c(N)ncnc31)[C@H](O)[C@@H]2O` is ___
A: 100 nM

* * *

# TEST_SYSTEM: Adenosine receptor A2a (Rattus norvegicus, UniProt P30543)
# METHOD: Ability to displace specific radioligand [3H]-CGS- 21680 binding at A2A receptors (rA2A) in rat brain membrane
# Type: cell membranes
REPORTED_PROPERTY: pKi
Please express pKi as -log10 of the molar concentration.

Some entries whose results are on file:
{"columns": ["COMPOUND_STRUCTURE", "REPORTED_PROPERTY", "VAL"],
 "data": [
  ["CNC(=O)[C@@]12C[C@@H]1[C@@H](n1cnc3c(NCc4cccc(I)c4)ncnc31)[C@H](O)[C@@H]2O", "pKi", 6.26],
  ["CNC(=O)[C@@]12C[C@@H]1[C@@H](n1cnc3c(NCc4cccc(I)c4)nc(Cl)nc31)[C@H](O)[C@@H]2O", "pKi", 5.78]
]}

Q: Which pKi reading was recorded for the compound `OC[C@@]12C[C@@H]1[C@@H](n1cnc3c(NCc4cccc(I)c4)nc(Cl)nc31)C[C@@H]2O` ?
A: 4.60

* * *

# TEST_SYSTEM: Adenosine receptor A3 (Homo sapiens, UniProt P0DMS8)
# METHOD: Agonist efficacy as effective concentration to stimulate binding of [35S]GTP-gamma-S, by activation of human A3AR receptor
REPORTED_PROPERTY: EC50 (nM)
Quick note: give the figure in nM, leave out the unit.

{"columns": ["COMPOUND_STRUCTURE", "VAL"],
 "data": [
  ["CNC(=O)[C@@]12C[C@@H]1[C@@H](n1cnc3c(NCc4cccc(I)c4)ncnc31)[C@H](O)[C@@H]2O", 6.8]
]}

// next item, EC50 requested
Q: Need EC50, item `CNC(=O)[C@@]12C[C@@H]1[C@@H](n1cnc3c(NC)nc(Cl)nc31)[C@H](O)[C@@H]2O`
A: 25.5

Origin of values: ChEMBL document CHEMBL1134070
